# assayed system: P2Y12 receptor (Homo sapiens)
# Sequence (Q9H244 whole entry): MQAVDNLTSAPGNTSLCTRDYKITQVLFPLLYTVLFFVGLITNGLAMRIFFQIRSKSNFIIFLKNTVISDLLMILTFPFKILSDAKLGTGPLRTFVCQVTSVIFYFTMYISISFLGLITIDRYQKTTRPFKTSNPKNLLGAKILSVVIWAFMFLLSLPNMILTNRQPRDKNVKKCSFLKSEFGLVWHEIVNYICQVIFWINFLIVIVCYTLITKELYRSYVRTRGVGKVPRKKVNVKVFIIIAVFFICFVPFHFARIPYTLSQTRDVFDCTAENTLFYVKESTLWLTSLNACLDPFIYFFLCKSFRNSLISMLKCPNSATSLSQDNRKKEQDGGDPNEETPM
# protocol notes: Functional inhibition of 2-Me-S-ADP induced P2Y12 signalling (35S-GTPγS, membranes from P2Y12 transfected CHO-cells)
# experimental setup: EC80 concentration of agonist 2-methyl-thio-adenosine diphosphate; 30° C., 45 min
experimental endpoint: IC50 (nM)
Number in nM, nothing else.

I'd like to know its IC50. The compound in question is CCOC(=O)c1cc(C#N)c(NCC(=O)NS(=O)(=O)CCc2ccccc2)nc1C(F)(F)F [Example 6] 240
